biological target: T1, human IL-6 (human, UniProt P05231 30-212); assay: SPR Biacore, supernatant Ab on Protein A chip, 37 C
T1 construct: IL-6 flowed over captured antibodies
T1 sequence (P05231 30-212 limits assumed): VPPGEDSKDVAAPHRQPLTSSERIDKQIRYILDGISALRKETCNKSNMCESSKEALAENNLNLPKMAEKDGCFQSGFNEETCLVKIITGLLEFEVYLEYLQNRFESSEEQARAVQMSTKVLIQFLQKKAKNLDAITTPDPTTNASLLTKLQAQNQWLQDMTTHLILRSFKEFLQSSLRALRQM
// values below are reported koff

binder	koff / s⁻¹
anti-IL-6 antibody, heavy chain T65Y, G66D / light chain M32L, M50D, N52S, M88Q (antibody, IgG1, V domains shown, Full IgG1 (Expi293); VL = variant III) VH: EVQLVESGGGLVQPGGSLRLSCAASGFTFSPFAMSWVRQAPGKGLEWVAKISPGGSWTYYSDTVYDRFTFSLDTSKSTAYLQMNSLRAEDTAVYYCARQLWGYYALDIWGQGTLVTVSS VL: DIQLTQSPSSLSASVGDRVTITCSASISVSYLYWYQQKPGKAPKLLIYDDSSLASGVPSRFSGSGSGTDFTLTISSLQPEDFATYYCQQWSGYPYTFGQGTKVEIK	0.000367
anti-IL-6 antibody, heavy chain I51S, G66D / light chain M32L, M50D, N52S, M88Q (antibody, IgG1, V domains shown, Full IgG1 (Expi293); VL = variant III) VH: EVQLVESGGGLVQPGGSLRLSCAASGFTFSPFAMSWVRQAPGKGLEWVAKSSPGGSWTYYSDTVTDRFTFSLDTSKSTAYLQMNSLRAEDTAVYYCARQLWGYYALDIWGQGTLVTVSS VL: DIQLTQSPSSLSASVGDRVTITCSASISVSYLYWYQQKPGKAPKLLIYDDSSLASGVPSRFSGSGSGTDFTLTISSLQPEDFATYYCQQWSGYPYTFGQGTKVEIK	0.000401
anti-IL-6 antibody, heavy chain S35F, G66D / light chain M32L, M50D, N52S, M88Q (antibody, IgG1, V domains shown, Full IgG1 (Expi293); VL = variant III) VH: EVQLVESGGGLVQPGGSLRLSCAASGFTFSPFAMFWVRQAPGKGLEWVAKISPGGSWTYYSDTVTDRFTFSLDTSKSTAYLQMNSLRAEDTAVYYCARQLWGYYALDIWGQGTLVTVSS VL: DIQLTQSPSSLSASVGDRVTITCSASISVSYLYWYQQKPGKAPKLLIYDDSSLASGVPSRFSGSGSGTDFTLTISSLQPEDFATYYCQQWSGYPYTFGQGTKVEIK	0.00484
